# MEASURED_TARGET: FGFR2 (Homo sapiens)
# Sequence (P21802 22-821): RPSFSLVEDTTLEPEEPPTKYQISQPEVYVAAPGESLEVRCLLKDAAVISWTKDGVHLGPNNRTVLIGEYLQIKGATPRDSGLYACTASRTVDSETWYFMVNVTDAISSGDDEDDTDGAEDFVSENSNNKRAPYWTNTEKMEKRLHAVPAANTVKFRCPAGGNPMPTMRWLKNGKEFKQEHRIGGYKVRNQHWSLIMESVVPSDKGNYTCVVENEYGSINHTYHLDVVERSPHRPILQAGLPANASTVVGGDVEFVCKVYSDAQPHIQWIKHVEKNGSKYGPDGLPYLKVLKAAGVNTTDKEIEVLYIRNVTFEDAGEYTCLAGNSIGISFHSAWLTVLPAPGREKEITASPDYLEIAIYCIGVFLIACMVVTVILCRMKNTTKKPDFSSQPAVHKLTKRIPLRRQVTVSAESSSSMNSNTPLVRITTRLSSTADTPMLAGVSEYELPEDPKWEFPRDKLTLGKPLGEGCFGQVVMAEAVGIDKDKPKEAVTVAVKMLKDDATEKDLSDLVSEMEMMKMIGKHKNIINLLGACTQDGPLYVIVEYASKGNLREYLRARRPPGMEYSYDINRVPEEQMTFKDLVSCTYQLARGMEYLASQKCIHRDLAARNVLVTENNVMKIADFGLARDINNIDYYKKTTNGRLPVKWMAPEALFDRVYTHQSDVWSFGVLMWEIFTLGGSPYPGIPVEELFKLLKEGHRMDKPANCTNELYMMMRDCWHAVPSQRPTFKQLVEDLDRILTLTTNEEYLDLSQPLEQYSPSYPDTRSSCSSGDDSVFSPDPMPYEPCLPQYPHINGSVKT
# ASSAY_DETAILS: FGFR2 Kinase Protocol - Condition 2 (Reaction Biology HotSpot radiometric kinase assay, no preincubation)
# Type: biochemical
# PARTICULARS: poly[Glu:Tyr] (4:1) 0.2 mg/ml, ATP 100 microM, 2 hr room temperature
# Description: Example 2: FGFR2 Kinase Protocol—Condition 2 The Reaction Biology HotSpot assay platform (http://www.reactionbiology.com) was used to measure kinase/inhibitor interactions as described previously (Anastassiadis et al., 2011). […] The percent remaining kinase activity relative to a vehicle-containing (DMSO) kinase reaction was calculated for each kinase/inhibitor pair. IC50 values were calculated using Dotmatics Knowledge Solutions Studies curve fitting (Dotmatics, Bishops Stortford, UK, CM23).

| SMILES_REPRESENTATION | MEASURED_TARGET | IC50 |
| --- | --- | --- |
| C=CC(=O)N1C[C@@H](n2cc(C#Cc3cc4ncn(C)c4cc3F)c3c(N)ncnc32)C[C@@H]1COC | FGFR2 (Homo sapiens) | ≤ 100 nM |
| C=CC(=O)N1C[C@@H](n2nc(C#Cc3ccc4c(cnn4C)c3)c3c(N)nccc32)C[C@@H]1COC | FGFR2 (Homo sapiens) | 100 to 1000 nM |
| C=CC(=O)N1C[C@@H](n2nc(C#Cc3ccc4nn(CC)cc4c3)c3c(N)nccc32)C[C@@H]1COC | FGFR2 (Homo sapiens) | 1000 to 10000 nM |
| C=CC(=O)N1C[C@@H](n2cc(C#Cc3c(F)cc4[nH]c(C)nc4c3F)c3c(N)ncnc32)C[C@@H]1COC | FGFR2 (Homo sapiens) | ≤ 100 nM |
| C=CC(=O)N1C[C@@H](n2nc(C#Cc3cc4ncn(C)c4cc3F)c3c(N)nccc32)C[C@@H]1CF | FGFR2 (Homo sapiens) | ≤ 100 nM |
| C=CC(=O)N1C[C@@H](c2nc(C#Cc3cc4ncn(C5CC5)c4cc3F)c3c(N)nccn23)C[C@@H]1COC | FGFR2 (Homo sapiens) | ≤ 100 nM |
| C=CC(=O)N1C[C@@H](n2nc(C#Cc3c(F)cc4nc(C)[nH]c4c3F)c3c(N)nccc32)C[C@@H]1COC | FGFR2 (Homo sapiens) | ≤ 100 nM |
